- tgt: xanthine oxidase (Homo sapiens)
- Sequence (P47989 whole entry, species assumed): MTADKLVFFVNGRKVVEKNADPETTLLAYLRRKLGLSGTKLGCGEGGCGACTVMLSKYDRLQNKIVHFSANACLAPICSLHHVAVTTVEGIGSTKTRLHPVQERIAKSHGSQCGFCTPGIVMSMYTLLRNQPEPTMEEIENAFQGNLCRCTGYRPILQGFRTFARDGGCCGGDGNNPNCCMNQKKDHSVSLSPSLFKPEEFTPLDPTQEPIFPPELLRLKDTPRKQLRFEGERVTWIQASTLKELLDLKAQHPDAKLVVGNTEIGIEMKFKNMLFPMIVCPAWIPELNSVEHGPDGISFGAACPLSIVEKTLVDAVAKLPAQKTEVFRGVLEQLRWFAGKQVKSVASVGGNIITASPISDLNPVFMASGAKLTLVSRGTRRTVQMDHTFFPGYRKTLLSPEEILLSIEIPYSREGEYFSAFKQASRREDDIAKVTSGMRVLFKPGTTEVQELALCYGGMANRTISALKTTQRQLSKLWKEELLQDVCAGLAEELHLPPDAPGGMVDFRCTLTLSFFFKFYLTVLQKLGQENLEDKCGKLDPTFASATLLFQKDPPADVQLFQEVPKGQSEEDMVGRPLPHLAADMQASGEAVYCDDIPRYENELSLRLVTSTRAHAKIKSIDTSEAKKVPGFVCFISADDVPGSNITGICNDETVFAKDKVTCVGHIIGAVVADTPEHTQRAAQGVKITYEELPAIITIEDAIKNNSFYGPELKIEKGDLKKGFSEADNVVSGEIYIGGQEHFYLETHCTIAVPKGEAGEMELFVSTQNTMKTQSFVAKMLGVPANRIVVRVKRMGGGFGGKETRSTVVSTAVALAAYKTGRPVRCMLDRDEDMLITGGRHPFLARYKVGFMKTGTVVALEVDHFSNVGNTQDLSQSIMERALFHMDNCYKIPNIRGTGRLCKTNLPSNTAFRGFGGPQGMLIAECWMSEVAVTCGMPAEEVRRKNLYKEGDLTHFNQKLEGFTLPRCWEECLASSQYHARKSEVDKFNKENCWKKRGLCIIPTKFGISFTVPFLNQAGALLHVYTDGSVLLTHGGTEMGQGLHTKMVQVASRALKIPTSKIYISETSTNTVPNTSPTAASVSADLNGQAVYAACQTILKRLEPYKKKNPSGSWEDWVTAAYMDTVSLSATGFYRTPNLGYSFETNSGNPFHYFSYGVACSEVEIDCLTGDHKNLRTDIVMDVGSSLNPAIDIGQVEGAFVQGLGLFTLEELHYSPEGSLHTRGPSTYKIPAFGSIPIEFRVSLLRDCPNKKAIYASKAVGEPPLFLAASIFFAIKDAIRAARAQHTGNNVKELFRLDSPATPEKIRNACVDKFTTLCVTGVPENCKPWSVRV
- assay comment: Xanthine oxidase inhibitory activity, 96 well plate, kinetic reading at 295 nm
- Format: biochemical
- measurement parameters: compound concentration 1 μM
# binarize PERCENT XANTHINE OXIDASE INHIBITION: threshold 10% inclusive, high side Criterion met, low side Criterion not met

# compound, assigned class
measured = [
    ("O=C(NCC1CCCCC1)c1ccc(-c2nnn[nH]2)cc1 [HS]", "Criterion met"),
    ("N#Cc1cc(-c2nnn[nH]2)ccc1C(=O)Nc1ccccc1 [JF]", "Criterion met"),
    ("CC(=O)c1ccc(-c2nnn[nH]2)cc1 [FU]", "Criterion not met"),
    ("O=C(OCCN1CCCC1)c1ccc(-c2nnn[nH]2)cc1 [GL]", "Criterion not met"),
]

## Task Decide: PERCENT XANTHINE OXIDASE INHIBITION of Cc1cc(C(=O)Nc2ccccc2)ccc1-c1nnn[nH]1 [JK] >= 10%?
## Result Criterion not met
